# target: PTHR-delNt (human) (UniProt Q03431)
# Sequence (Q03431 185-593, form in doubt): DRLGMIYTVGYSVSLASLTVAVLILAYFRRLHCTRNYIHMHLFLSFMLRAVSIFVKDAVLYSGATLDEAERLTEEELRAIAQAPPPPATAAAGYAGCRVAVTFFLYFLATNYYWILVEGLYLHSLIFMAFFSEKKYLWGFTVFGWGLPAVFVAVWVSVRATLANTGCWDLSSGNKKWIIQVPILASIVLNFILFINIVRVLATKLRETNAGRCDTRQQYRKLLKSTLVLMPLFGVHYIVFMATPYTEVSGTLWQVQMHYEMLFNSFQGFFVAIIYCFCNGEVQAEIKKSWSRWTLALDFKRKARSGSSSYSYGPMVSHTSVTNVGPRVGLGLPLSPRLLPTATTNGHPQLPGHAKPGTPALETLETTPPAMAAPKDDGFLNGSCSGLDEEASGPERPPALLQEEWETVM
# protocol: competition binding, COS-7 membranes, 125I-[Aib1,3,M]PTH(1-15) tracer
Where no end group is shown, it is not given here.
Below, each of the binders is paired with its reported fold reduction in binding affinity vs [Ala^1,Arg^19]PTH(1-31)NH2 value.
The reply should contain only the number, in fold.

{"binder": "AVSEIQLMHNLGKHLNSMRRVEWLEKKLQDV-NH2 [[Ala^1,Arg^19]hPTH(1-31)NH2 Arg^25→Glu]", "readout_value": 4}

Now look at this one.
What measured fold reduction in binding affinity vs [Ala^1,Arg^19]PTH(1-31)NH2 goes with AVSEIQLMHNLGKHLNSMRREEWLRKKLQDV-NH2 [[Ala^1,Arg^19]hPTH(1-31)NH2 Val^21→Glu] ?
4

Ref: patent US20100081612A1
